These measurements were taken from the CheMixHub drug solubility set.

Assay: xn = mol fraction of the nth substance listed, in the solute-free solvent
Details: 328.15 K; x2 = 0.8
property_name: solubility (g/100 g solution)
Please respond with just the number, no unit label.

1. CN1CCN(C(=O)OC2c3nccnc3C(=O)N2c2ccc(Cl)cn2)CC1 (stereo unspecified) + CC#N + O = 8.93

Query :: Indicate its recorded solubility (g/100 g solution); the compound in question is CN1CCN(C(=O)OC2c3nccnc3C(=O)N2c2ccc(Cl)cn2)CC1 (stereo unspecified) + CCO + O
Result :: 3.31

Query :: Indicate its recorded solubility (g/100 g solution); the compound in question is CCCCN1CCCCC1C(=O)Nc1c(C)cccc1C.Cl.O (stereo unspecified) + CCO + O
Result :: 20.2

Query :: Indicate its recorded solubility (g/100 g solution); the compound in question is CN1CCN(C(=O)OC2c3nccnc3C(=O)N2c2ccc(Cl)cn2)CC1 (stereo unspecified) + CC(C)=O + O
Result :: 4.63

Query :: Indicate its recorded solubility (g/100 g solution); the compound in question is CCCCN1CCCCC1C(=O)Nc1c(C)cccc1C.Cl.O (stereo unspecified) + CO + O
Result :: 30.2

Query :: Indicate its recorded solubility (g/100 g solution); the compound in question is CN1CCN(C(=O)OC2c3nccnc3C(=O)N2c2ccc(Cl)cn2)CC1 (stereo unspecified) + C1CCOC1 + O
Result :: 9.55

###

Test: xn = mol fraction of the nth substance listed, in the solute-free solvent
Conditions: 303.15 K; x2 = 0.3698
property_name: solubility (g/100 g solution)

Recorded solubility (g/100 g solution), per entry:
1. CC(=O)Nc1ccc(OC(=O)c2ccccc2OC(C)=O)cc1 + CCO + O = 0.33
2. CS(=O)(=O)c1ccc(C(O)C(CF)NC(=O)C(Cl)Cl)cc1 (centres undefined) + CCO + O = 2.48
3. COC(=O)C1=C(C)NC(C)=C(C(=O)OCC(C)C)C1c1ccccc1[N+](=O)[O-] (centres undefined) + CCO + O = 4.51

Please find the next compound below.
Query :: Indicate its recorded solubility (g/100 g solution); the compound in question is O=[N+]([O-])c1cc[nH]n1 + CCO + O
Result :: 2.08

###

Assay: xn = mol fraction of the nth substance listed, in the solute-free solvent
Conditions: 318.15 K; x2 = 0.6
# key: entry, value: solubility (g/100 g solution)

Recorded solubility (g/100 g solution), per entry:
1) CCCCN1CCCCC1C(=O)Nc1c(C)cccc1C.Cl.O (stereo not drawn) + CCO + O = 11.5
2) CN1CCN(C(=O)OC2c3nccnc3C(=O)N2c2ccc(Cl)cn2)CC1 (stereo not drawn) + CC(C)=O + O = 1.88
3) O=C(CC(=O)c1ccccc1)c1ccccc1 + CCO + O = 3.89
4) CN1CCN(C(=O)OC2c3nccnc3C(=O)N2c2ccc(Cl)cn2)CC1 (stereo not drawn) + C1CCOC1 + O = 4.68
5) O=c1ccc2ccccc2o1 + CO + O = 67

Query :: Indicate its recorded solubility (g/100 g solution); the molecule in question is CC1(C)SC2C(NC(=O)C(NC(=O)N3CCNC3=O)c3ccccc3)C(=O)N2C1C(=O)O (stereo not drawn) + CO + CC(C)O
Result :: 0.811

Query :: Indicate its recorded solubility (g/100 g solution); the molecule in question is O=C(CC(=O)c1ccccc1)c1ccccc1 + CC(C)O + O
Result :: 4.94

Query :: Indicate its recorded solubility (g/100 g solution); the molecule in question is O=C(CC(=O)c1ccccc1)c1ccccc1 + CO + O
Result :: 1.05

Query :: Indicate its recorded solubility (g/100 g solution); the molecule in question is CN1CCN(C(=O)OC2c3nccnc3C(=O)N2c2ccc(Cl)cn2)CC1 (stereo not drawn) + CC#N + O
Result :: 5.76

Query :: Indicate its recorded solubility (g/100 g solution); the molecule in question is CCCCN1CCCCC1C(=O)Nc1c(C)cccc1C.Cl.O (stereo not drawn) + CO + O
Result :: 19.1

Query :: Indicate its recorded solubility (g/100 g solution); the molecule in question is O=c1[nH]cc(F)c(=O)[nH]1 + CO + C1CCOC1
Result :: 0.745

Query :: Indicate its recorded solubility (g/100 g solution); the molecule in question is CN1CCN(C(=O)OC2c3nccnc3C(=O)N2c2ccc(Cl)cn2)CC1 (stereo not drawn) + CCO + O
Result :: 2.03

Query :: Indicate its recorded solubility (g/100 g solution); the molecule in question is CCOC(=O)C1=CC2(CC)CCCN3CCc4c(n1c1ccccc41)C32 (stereo not drawn) + CCO + O
Result :: 1.25

###

Test: xn = mol fraction of the nth substance listed, in the solute-free solvent
Settings: 283.15 K; x2 = 0.3698
property_name: solubility (g/100 g solution)
Please respond with just the number, no unit label.

1) COC(=O)C1=C(C)NC(C)=C(C(=O)OCC(C)C)C1c1ccccc1[N+](=O)[O-] (centres undefined) + CCO + O = 2.14
2) CS(=O)(=O)c1ccc(C(O)C(CF)NC(=O)C(Cl)Cl)cc1 (centres undefined) + CCO + O = 0.998

Query :: Indicate its recorded solubility (g/100 g solution); the compound in question is O=[N+]([O-])c1cc[nH]n1 + CCO + O
Result :: 1

Query :: Indicate its recorded solubility (g/100 g solution); the compound in question is CC(=O)Nc1ccc(OC(=O)c2ccccc2OC(C)=O)cc1 + CCO + O
Result :: 0.109

###

# key: entry, value: solubility (g/100 g solution)
Assay: xn = mol fraction of the nth substance listed, in the solute-free solvent
Conditions: 308.15 K; x2 = 0.06974
Please respond with just the number, no unit label.

Recorded solubility (g/100 g solution), per entry:
1) COC(=O)C1=C(C)NC(C)=C(C(=O)OCC(C)C)C1c1ccccc1[N+](=O)[O-] (stereo not given) + CCCO + O = 1.62
2) CC(=O)Nc1ccc(OC(=O)c2ccccc2OC(C)=O)cc1 + CC(C)O + O = 0.0481
3) O=[N+]([O-])c1cc[nH]n1 + CCCO + O = 1.01

Query :: Indicate its recorded solubility (g/100 g solution); the compound in question is CS(=O)(=O)c1ccc(C(O)C(CF)NC(=O)C(Cl)Cl)cc1 (stereo not given) + CC(C)O + O
Result :: 0.613

Query :: Indicate its recorded solubility (g/100 g solution); the compound in question is COC(=O)C1=C(C)NC(C)=C(C(=O)OCC(C)C)C1c1ccccc1[N+](=O)[O-] (stereo not given) + CC(C)O + O
Result :: 2.04

###

Experiment: xn = mol fraction of the nth substance listed, in the solute-free solvent
Conditions: 303.15 K; x2 = 0.7297
# key: entry, value: solubility (g/100 g solution)
Please respond with just the number, no unit label.

1. COC(=O)C1=C(C)NC(C)=C(C(=O)OCC(C)C)C1c1ccccc1[N+](=O)[O-] (centres undefined) + CCCO + O = 6.28
2. CS(=O)(=O)c1ccc(C(O)C(CF)NC(=O)C(Cl)Cl)cc1 (centres undefined) + CC(C)O + O = 1.14
3. CC(=O)Nc1ccc(OC(=O)c2ccccc2OC(C)=O)cc1 + CC(C)O + O = 0.315

Please find the next compound below.
Query :: Indicate its recorded solubility (g/100 g solution); the compound in question is O=[N+]([O-])c1cc[nH]n1 + CCCO + O
Result :: 4.54

###

Test: xn = mol fraction of the nth substance listed, in the solute-free solvent
Conditions: 308.15 K; x2 = 0.4117
# key: entry, value: solubility (g/100 g solution)
Please respond with just the number, no unit label.

Recorded solubility (g/100 g solution), per entry:
1. CS(=O)(=O)c1ccc(C(O)C(CF)NC(=O)C(Cl)Cl)cc1 (centres undefined) + CC(C)O + O = 1.42
2. CC(=O)Nc1ccc(OC(=O)c2ccccc2OC(C)=O)cc1 + CC(C)O + O = 0.341

Query :: Indicate its recorded solubility (g/100 g solution); the compound in question is COC(=O)C1=C(C)NC(C)=C(C(=O)OCC(C)C)C1c1ccccc1[N+](=O)[O-] (centres undefined) + CCCO + O
Result :: 6.73

Query :: Indicate its recorded solubility (g/100 g solution); the compound in question is O=[N+]([O-])c1cc[nH]n1 + CCCO + O
Result :: 4.69

###

Assay: xn = mol fraction of the nth substance listed, in the solute-free solvent
Details: 308.15 K; x2 = 0.3
Response key: met means solubility (g/100 g solution) >= 0.4; not met means solubility (g/100 g solution) < 0.4.

1. CN1CCN(C(=O)OC2c3nccnc3C(=O)N2c2ccc(Cl)cn2)CC1 (centres undefined) + CCO + O = not met
2. O=c1ccc2ccccc2o1 + CO + O = met

Query :: Quick check: does CN1CCN(C(=O)OC2c3nccnc3C(=O)N2c2ccc(Cl)cn2)CC1 (centres undefined) + CC(C)=O + O have solubility (g/100 g solution) greater than or equal to 0.4?
Result :: not met

Query :: Quick check: does CN1CCN(C(=O)OC2c3nccnc3C(=O)N2c2ccc(Cl)cn2)CC1 (centres undefined) + C1CCOC1 + O have solubility (g/100 g solution) greater than or equal to 0.4?
Result :: met

Query :: Quick check: does CCOC(=O)C1=CC2(CC)CCCN3CCc4c(n1c1ccccc41)C32 (centres undefined) + CCO + O have solubility (g/100 g solution) greater than or equal to 0.4?
Result :: not met

Query :: Quick check: does CCCCN1CCCCC1C(=O)Nc1c(C)cccc1C.Cl.O (centres undefined) + CO + O have solubility (g/100 g solution) greater than or equal to 0.4?
Result :: met

Query :: Quick check: does CN1CCN(C(=O)OC2c3nccnc3C(=O)N2c2ccc(Cl)cn2)CC1 (centres undefined) + CC#N + O have solubility (g/100 g solution) greater than or equal to 0.4?
Result :: met

Query :: Quick check: does CCCCN1CCCCC1C(=O)Nc1c(C)cccc1C.Cl.O (centres undefined) + CCO + O have solubility (g/100 g solution) greater than or equal to 0.4?
Result :: met
